# Tested on: NCI-H226 lung
# test: NCI tumour cell line growth inhibition, 48 h
Some molecules, each annotated with its measured TGI.

molecule | TGI
COc1ccc2cc(-c3c(-c4ccncc4)nc(-c4ccc(S(C)=O)cc4C)n3C)ccc2c1 (stereo not given) | > 25 µM
O=CNNC(=O)Nc1ccc(Cl)cc1 | > 100 µM
O=c1c2c(nc3n1CCC3)sc1c(O)c(Br)ccc12 | 73.2 µM
COC(=O)C1(F)C(=O)NC(=O)NC1OC (stereo not given) | > 100 µM
COC(=O)[C@H](Cc1ccccc1)NC(=O)c1csc([C@@H](C[C@H](C(C)C)N(C)C(=O)[C@@H](NC(=O)[C@H]2CCCN2C)C2CC2)OC(C)=O)n1 | > 33.3 µM
C=C[C@@](C)(/C=C/c1ccc(O)cc1)CCC=C(C)C | 35.4 µM
C=CC(=O)Nc1cccc(Nc2nc(Nc3ccc(OCCOC(F)F)cc3)ncc2F)c1 | 11.2 µM
Nc1ncnc2c1c(-c1ccc(Oc3ccccc3)cc1)nn2C[C@@H]1SSC[C@@H]1O | 3.92 µM
O=C(/C=C/c1ccco1)c1cccc(C(=O)/C=C/c2ccco2)n1 | > 100 µM
NC(=O)C(=O)n1ncc(Cl)c(Cl)c1=O | > 100 µM

====

Some molecules, each annotated with its measured TGI.
# Tested on: SF-539 CNS
# test: NCI tumour cell line growth inhibition, 48 h
measured-property: TGI (µM)

molecule | comparison-symbol | readout-value
COc1ccc2[nH]c3c(=O)[nH]ncc3c2c1 | > | 100
[N-]=[N+]=C(C(=O)C(=[N+]=[N-])C(=O)c1ccccc1)C(=O)c1ccccc1 | > | 100
CO[P@]1(=O)O[C@@H](c2ccccc2)[C@H](O)[C@@]1(O)c1ccccc1 | > | 100
COc1ccc(C(=O)c2ccc(-n3cc(/C=C/[N+](=O)[O-])c4ccccc43)cc2)cc1 | = | 31.3
CCOC(=O)/C(C#N)=C/N(CC)/N=C/c1ccccc1 | > | 100
O=c1c2c(nc3n1CCC3)sc1c(O)c(Br)ccc12 | = | 33
O=C(O)C1C(C(=O)O)C2(Cl)C(Cl)=C(Cl)C1(Cl)C2(Cl)Cl.[Cd] (configuration not stated) | = | 11.7
COC(=O)C1(F)C(=O)NC(=O)NC1OC (configuration not stated) | > | 100
COC(=O)C(C(=O)C(=O)NC1Nc2ccc(C)cc2S1)c1nc2ccc(Cl)cc2[nH]c1=O (configuration not stated) | > | 100
CC(=O)[CH-]C(=O)c1ccccc1.CC(=O)[CH-]C(=O)c1ccccc1.[CH2-]CCC.[CH2-]CCC.[Sn+4] | = | 2.77
O=CNNC(=O)Nc1ccc(Cl)cc1 | > | 100
C=CC1=CC(C)C[C@]1(O)C(=O)OC (some centres not stated) | > | 100
COc1cc([C@H]2c3[nH]c4ccccc4c3C[C@H]3COC(=O)N32)cc(OC)c1O | = | 2.86
COC(=O)CC(NC(=O)OCc1ccccc1)C(C(=O)OCc1ccccc1)C1(C)OCCO1 (configuration not stated) | > | 100
CCCCCCCCCC(=O)Oc1cccc2onc(C)c12 | > | 100
COC1=CC(=O)C2=C(C1=O)[C@H]1CC[C@]3(C)[C@@H](OC(C)=O)CC[C@H]3[C@@H]1CC2 | > | 100
CC/C(Cl)=N\OC(=O)Nc1ccc(F)cc1F | = | 23.5
COc1ccc(/C=C/C(=O)C(C)(C)Br)cc1 | = | 32.2
O=C1CSc2nnc(CCCCCCCCc3nnc4n3NC(=O)CS4)n2N1 | > | 100
Cc1cc(=O)oc2cc(OCCn3c(C)nn(-c4ccc(Cl)cc4)c3=O)ccc12 | = | 47.3
CC(c1ccccc1)N1CC(C)(c2ccccc2)N(O)C(c2ccccc2)C1C (configuration not stated) | = | 26.5
CC(=O)c1ccc(NC(=O)CSc2nc(C)nc3c2sc(=S)n3-c2ccccc2)cc1 | > | 3.16
